Listed here are compounds together with their documented pKi.
assay_target: Human α2δ-1 subunit of Cav2.2 calcium channel (Homo sapiens, UniProt P54289)
Sequence (P54289 25-1103): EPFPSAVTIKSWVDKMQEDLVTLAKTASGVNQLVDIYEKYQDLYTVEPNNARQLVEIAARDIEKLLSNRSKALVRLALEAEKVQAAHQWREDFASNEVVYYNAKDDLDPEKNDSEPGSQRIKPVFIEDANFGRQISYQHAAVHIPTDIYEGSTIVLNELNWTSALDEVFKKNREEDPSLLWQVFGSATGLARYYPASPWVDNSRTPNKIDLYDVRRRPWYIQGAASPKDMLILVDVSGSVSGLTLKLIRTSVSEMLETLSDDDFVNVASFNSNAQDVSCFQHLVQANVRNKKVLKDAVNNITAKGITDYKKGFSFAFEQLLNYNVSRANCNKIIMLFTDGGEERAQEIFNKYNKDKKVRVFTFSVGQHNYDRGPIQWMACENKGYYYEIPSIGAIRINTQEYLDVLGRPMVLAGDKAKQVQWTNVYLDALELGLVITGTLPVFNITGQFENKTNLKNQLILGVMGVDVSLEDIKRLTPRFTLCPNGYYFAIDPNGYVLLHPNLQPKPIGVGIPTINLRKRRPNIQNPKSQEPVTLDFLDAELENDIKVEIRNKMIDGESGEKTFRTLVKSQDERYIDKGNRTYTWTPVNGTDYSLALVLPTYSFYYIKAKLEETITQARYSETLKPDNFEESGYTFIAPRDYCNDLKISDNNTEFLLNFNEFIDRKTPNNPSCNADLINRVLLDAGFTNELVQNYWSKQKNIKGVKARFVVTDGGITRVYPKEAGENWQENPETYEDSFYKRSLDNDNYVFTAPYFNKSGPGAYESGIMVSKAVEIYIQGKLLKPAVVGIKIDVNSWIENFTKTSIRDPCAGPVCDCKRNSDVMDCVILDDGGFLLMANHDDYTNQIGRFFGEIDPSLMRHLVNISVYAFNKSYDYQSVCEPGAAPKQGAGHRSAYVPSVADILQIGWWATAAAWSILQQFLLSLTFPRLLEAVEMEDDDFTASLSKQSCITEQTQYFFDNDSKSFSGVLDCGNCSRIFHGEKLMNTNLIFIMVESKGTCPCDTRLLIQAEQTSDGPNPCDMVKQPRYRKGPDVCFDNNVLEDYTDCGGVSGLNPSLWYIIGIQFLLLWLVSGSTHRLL
run_description: biochemical
Assay type: binding
pKi: −log10 of the molar value.

INSERT INTO assay_data (compound, recorded_result) VALUES
  ('CCCC(c1nc2cc(CO)ccc2c(=O)n1C)N1C[C@@H](C)N[C@@H](C)C1 (some centres unmarked)', '> 6.30');

Query CCC[C@@H](c1nc2c(F)cc(OC)cc2c(=O)n1CC)N1CCNCC1 yields pKi of < 5.30

Query COCCn1c(C(CC2CC2)N2C[C@@H](C)N[C@@H](C)C2)nc2ccccc2c1=O (some centres unmarked) yields pKi of 5.30 to 6.30

Query CCCC(c1nc2cc(C(=O)OC)ccc2c(=O)n1CC)N1C[C@@H](C)N[C@@H](C)C1 (some centres unmarked) yields pKi of > 6.30

Query CCCC(c1nc2cccnc2c(=O)n1CC)N1CCNCC1 (centres unmarked) yields pKi of > 6.30

Query CCCC(c1nc2cc(O)ccc2c(=O)n1C)N1C[C@@H](C)N[C@@H](C)C1 (some centres unmarked) yields pKi of > 6.30

Query CCCC(c1nc2ccccc2c(=O)n1CCNC)N1C[C@@H](C)N[C@@H](C)C1 (some centres unmarked) yields pKi of 5.30 to 6.30

Query CCC[C@H](c1nc2ccc(Br)cc2c(=O)n1CC)N1CCN[C@@H](CC)C1 yields pKi of > 6.30
